The measurements presented in this section are drawn from patent US9522888B2.

- study target: S1P1 (membranes prepared from S1P1/CHO cells) (Homo sapiens (Human), UniProt P21453)
- test method notes: Receptor [35S] GTPγS binding assay (S1P1 GTPγS)
- Type: biochemical
- run parameters: phosphate examples; read-out: S1P1 GTPγS
measured attribute: EC50

Guide cases for EC50, answers given:
Cc1ccc(COC[C@@H]2CCc3cc([C@H]4CC[C@](N)(COP(=O)(O)O)C4)ccc3C2)cc1
10 to 100 nM
CN(C)C(=O)Cc1ccc(C[C@@H]2CCc3cc([C@H]4CC[C@](N)(COP(=O)(O)O)C4)ccc3C2)cc1
100 to 1000 nM
CCC/C=C\CO[C@@H]1CCc2cc([C@H]3CC[C@](N)(COP(=O)(O)O)C3)ccc2C1
10 to 100 nM
COc1cccc(COC[C@H]2CCc3cc([C@H]4CC[C@](N)(COP(=O)(O)O)C4)ccc3C2)c1
< 10 nM
CCCCCCC[C@H]1Cc2ccc([C@H]3CC[C@](N)(COP(=O)(O)O)C3)cc2CO1
< 10 nM
Cc1ccccc1OC[C@H]1CCc2cc([C@H]3CC[C@](N)(COP(=O)(O)O)C3)ccc2C1
10 to 100 nM
CC(C)=CCCC[C@@H]1CCc2cc([C@H]3CC[C@](N)(COP(=O)(O)O)C3)ccc2C1
< 10 nM
CC/C=C/CC[C@H]1CCc2cc([C@H]3CC[C@](N)(COP(=O)(O)O)C3)ccc2C1
10 to 100 nM
COc1ccc(C[C@@H]2CCc3cc([C@H]4CC[C@](N)(COP(=O)(O)O)C4)ccc3C2)cc1F
10 to 100 nM
CCCCCC(=O)OC1CCc2cc([C@H]3CC[C@](N)(COP(=O)(O)O)C3)ccc2C1 (stereo partly drawn)
< 10 nM

Record request: EC50 value, item `CCC/C=C\CO[C@H]1CCc2cc([C@H]3CC[C@](N)(COP(=O)(O)O)C3)ccc2C1`
< 10 nM

What does the record list as EC50 for `CCCCO/N=C(\C)[C@@H]1CCc2cc([C@H]3CC[C@](N)(COP(=O)(O)O)C3)ccc2C1` ?
< 10 nM

# lookup: EC50 of `Cc1ccccc1OC[C@@H]1CCc2cc([C@H]3CC[C@](N)(COP(=O)(O)O)C3)ccc2C1`
10 to 100 nM

Any idea what EC50 was measured for `CCCCCO[C@H]1CCc2cc([C@H]3CC[C@](N)(COP(=O)(O)O)C3)ccc2C1` ?
100 to 1000 nM

Fill in: EC50 of `CCCCOC[C@@H]1COc2cc([C@H]3CC[C@](N)(COP(=O)(O)O)C3)ccc2O1` is ___
10 to 100 nM

====

- study target: human S1P1 (Homo sapiens (Human), UniProt P21453)
- Sequence (P21453 whole entry): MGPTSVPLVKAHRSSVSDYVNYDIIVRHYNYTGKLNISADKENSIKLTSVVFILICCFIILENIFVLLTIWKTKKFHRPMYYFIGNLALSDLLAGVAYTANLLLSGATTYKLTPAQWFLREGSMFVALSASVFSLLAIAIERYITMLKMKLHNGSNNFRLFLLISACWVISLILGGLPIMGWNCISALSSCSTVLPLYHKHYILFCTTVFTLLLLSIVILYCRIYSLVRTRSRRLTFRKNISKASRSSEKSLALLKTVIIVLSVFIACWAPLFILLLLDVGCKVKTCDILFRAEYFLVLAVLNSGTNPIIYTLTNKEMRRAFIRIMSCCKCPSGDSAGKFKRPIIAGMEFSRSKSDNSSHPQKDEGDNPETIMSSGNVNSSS
- test method notes: S1P1 binding assay (33P-S1P radioligand competition, CHO cell membranes)
- run parameters: phosphate examples; read-out: S1P1 Binding
measured attribute: IC50

Some compounds with recorded IC50:
CCCCCC(=O)N1CCc2cc([C@H]3CC[C@@](N)(COP(=O)(O)O)C3)ccc2C1
100 to 1000 nM
CC/C=C/CC[C@H]1CCc2cc([C@H]3CC[C@](N)(COP(=O)(O)O)C3)ccc2C1
< 10 nM

Data request, read-out IC50, for `CCCCOC[C@H]1CCc2cc([C@H]3CC[C@](N)(COP(=O)(O)O)C3)ccc2C1`
10 to 100 nM

What value of IC50 has been recorded for this entry: `COc1ccc(OC[C@@H]2CCc3cc([C@H]4CC[C@](N)(COP(=O)(O)O)C4)ccc3C2)cc1OC`
< 10 nM
